target: T1, H4-15 histone H4 tail peptide
T1 chain: GRGKGGKGLGKGGAK
Examples of proteins with documented Km(µM) for H4-15 follow.

Query string: What value of Km(µM) for H4-15 has been recorded for this entry: semi-synthetic p300 HAT domain D1628R (protein) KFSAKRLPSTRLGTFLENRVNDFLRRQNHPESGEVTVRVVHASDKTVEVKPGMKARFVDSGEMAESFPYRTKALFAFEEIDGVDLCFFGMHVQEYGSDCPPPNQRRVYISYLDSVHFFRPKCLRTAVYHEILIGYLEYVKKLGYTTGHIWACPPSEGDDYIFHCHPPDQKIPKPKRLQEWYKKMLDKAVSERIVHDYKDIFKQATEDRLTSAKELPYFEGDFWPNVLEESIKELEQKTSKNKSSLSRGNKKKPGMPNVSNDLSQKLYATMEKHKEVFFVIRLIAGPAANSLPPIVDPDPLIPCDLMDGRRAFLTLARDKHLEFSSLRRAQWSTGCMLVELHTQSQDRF
Result string: >1000

Query string: Can you check semi-synthetic p300 HAT domain H1434A (protein) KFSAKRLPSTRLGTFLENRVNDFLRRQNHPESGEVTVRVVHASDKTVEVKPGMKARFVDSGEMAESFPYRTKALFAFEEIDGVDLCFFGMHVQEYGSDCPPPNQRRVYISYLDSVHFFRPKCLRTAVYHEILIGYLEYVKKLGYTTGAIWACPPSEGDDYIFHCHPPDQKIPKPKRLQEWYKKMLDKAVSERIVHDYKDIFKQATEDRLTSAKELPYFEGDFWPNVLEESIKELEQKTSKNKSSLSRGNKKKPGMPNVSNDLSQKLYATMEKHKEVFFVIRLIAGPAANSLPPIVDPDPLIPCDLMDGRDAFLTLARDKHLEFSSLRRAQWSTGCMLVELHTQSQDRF next?
Result string: 151 µM

Reference source: patent US20100216853
